Collected pIC50 values appear next to each entry.
- Tested System: Amine oxidase [flavin-containing] B (Homo sapiens)
- Sequence (P27338 whole entry): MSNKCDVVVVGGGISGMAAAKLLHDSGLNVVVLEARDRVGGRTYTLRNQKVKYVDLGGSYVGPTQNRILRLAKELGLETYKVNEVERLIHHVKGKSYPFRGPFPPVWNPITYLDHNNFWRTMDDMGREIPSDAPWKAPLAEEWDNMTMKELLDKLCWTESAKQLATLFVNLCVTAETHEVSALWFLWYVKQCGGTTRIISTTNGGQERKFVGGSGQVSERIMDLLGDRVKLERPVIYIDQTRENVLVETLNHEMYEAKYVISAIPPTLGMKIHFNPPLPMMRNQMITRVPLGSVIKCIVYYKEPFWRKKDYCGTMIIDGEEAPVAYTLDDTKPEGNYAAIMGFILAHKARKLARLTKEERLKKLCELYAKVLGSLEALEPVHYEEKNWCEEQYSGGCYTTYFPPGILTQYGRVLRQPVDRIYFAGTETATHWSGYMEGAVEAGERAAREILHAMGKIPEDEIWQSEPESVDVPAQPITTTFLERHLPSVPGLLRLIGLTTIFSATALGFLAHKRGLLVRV
- Protocol Details: Inhibition of MAO-B (unknown origin)
pIC50 is a log-scale quantity: -log10 of the concentration expressed in molar.

# annotated cases, reported pIC50 shown
[[record]]
mol = "COc1ccc(/C=C2\\Oc3cc(OCCN4CCCC4)ccc3C2=O)c(OC)c1OC"
recorded_endpoint = "pIC50"
measured = 6.47

[[record]]
mol = "CCOc1ccc(C(=O)/C=C/c2ccccc2)cc1"
recorded_endpoint = "pIC50"
measured = 6.40

[[record]]
mol = "CCO/C(C)=N/Oc1ccc(/C=C/C(=O)c2ccc(F)cc2)cc1"
recorded_endpoint = "pIC50"
measured = 7.70

[[record]]
mol = "COc1ccccc1/C=C1\\Oc2cc(OCCN3CCCC3)ccc2C1=O"
recorded_endpoint = "pIC50"
measured = 6.01

[[record]]
mol = "O=C(/C=C/c1ccc(Br)cc1)c1ccc(Cl)s1"
recorded_endpoint = "pIC50"
measured = 6.15


QUERY: What value of pIC50 has been reported for the following compound? `O=C(/C=C/c1ccc(F)cc1)c1ccc(Br)s1`
RESULT: 5.77

QUERY: Next up: `O=C(/C=C/c1ccc(Cl)cc1)c1ccc(Cl)s1`
RESULT: 6.10

* * *

IC50 listing for selected molecules.
- Tested System: UniProt:O42275
- Protocol Details: Inhibition of electric eel AChE using acetylthiocholine iodide as substrate preincubated with compounds for 20 mins followed by substrate addition and measured after 5 mins by Ellman's method
Lab book: enter the figure in nM, no units written.

QUERY: Returns the measured IC50 for the input molecule. Input: `CN(Cc1ccccc1)Cc1ccc(/C=C2/Cc3ccc(OCCCCCN4CCN(C(c5ccc(F)cc5)c5ccc(F)cc5)CC4)cc3C2=O)cc1`
RESULT: 44.1

QUERY: Also `COc1ccc(-c2ccccc2/C=C2/Cc3cc(OC)ccc3C2=O)cc1` , if possible.
RESULT: 21.2

QUERY: Next record, please: `COc1ccc2c(c1)C/C(=C/c1ccccc1-c1ccccc1)C2=O`
RESULT: 29.8

QUERY: Subsequent entry: `COc1ccc2c(c1)C/C(=C/c1ccccc1-c1ccc3nc(N)ccc3c1)C2=O`
RESULT: 14.7

* * *

- Tested System: Beta-secretase 1 (Homo sapiens)
- Sequence (P56817 whole entry): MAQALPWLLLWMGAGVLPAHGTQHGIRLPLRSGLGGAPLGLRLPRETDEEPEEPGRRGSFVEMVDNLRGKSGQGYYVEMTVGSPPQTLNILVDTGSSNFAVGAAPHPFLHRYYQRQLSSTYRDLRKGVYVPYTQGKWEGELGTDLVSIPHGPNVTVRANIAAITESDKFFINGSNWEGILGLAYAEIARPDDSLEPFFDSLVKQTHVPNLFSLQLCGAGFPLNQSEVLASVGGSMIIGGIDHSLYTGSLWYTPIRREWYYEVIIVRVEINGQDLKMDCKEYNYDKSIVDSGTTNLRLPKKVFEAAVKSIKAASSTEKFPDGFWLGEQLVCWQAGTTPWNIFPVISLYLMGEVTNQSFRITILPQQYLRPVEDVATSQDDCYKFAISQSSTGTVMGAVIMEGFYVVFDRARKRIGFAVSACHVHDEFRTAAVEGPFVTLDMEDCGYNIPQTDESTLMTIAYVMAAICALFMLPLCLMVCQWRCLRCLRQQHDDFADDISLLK
- Protocol Details: Inhibition of human BACE-1 by FRET assay
Recorded Endpoint: pIC50
Friendly reminder that pIC50 comes from taking -log10 of the concentration in mol/L.

The cases that follow already have their pIC50 on record.
[[record]]
mol = "COc1ccc(NC(=O)C2CCN(Cc3ccccc3)CC2)cc1"
measured = 6.60

[[record]]
mol = "COc1ccc2c(c1)C/C(=C/c1ccccc1-c1ccc3ccccc3c1)C2=O"
measured = 7.00


QUERY: API: value(readout= pIC50, system= Beta-secretase 1 (Homo sapiens), query= `COc1ccc(NC(=O)C2CCN(Cc3ccccc3)CC2)cc1OC` )
RESULT: 6.61

QUERY: Continue with `c1ccc2oc(CNCCCCCCCNc3c4c(cc5ccccc35)CCCC4)cc2c1`
RESULT: 5.87

QUERY: Subsequent entry: `COc1ccccc1NC(=O)C1CCN(Cc2ccccc2)CC1`
RESULT: 6.56

* * *

- Tested System: UniProt:P81908
- Sequence (P81908 whole entry): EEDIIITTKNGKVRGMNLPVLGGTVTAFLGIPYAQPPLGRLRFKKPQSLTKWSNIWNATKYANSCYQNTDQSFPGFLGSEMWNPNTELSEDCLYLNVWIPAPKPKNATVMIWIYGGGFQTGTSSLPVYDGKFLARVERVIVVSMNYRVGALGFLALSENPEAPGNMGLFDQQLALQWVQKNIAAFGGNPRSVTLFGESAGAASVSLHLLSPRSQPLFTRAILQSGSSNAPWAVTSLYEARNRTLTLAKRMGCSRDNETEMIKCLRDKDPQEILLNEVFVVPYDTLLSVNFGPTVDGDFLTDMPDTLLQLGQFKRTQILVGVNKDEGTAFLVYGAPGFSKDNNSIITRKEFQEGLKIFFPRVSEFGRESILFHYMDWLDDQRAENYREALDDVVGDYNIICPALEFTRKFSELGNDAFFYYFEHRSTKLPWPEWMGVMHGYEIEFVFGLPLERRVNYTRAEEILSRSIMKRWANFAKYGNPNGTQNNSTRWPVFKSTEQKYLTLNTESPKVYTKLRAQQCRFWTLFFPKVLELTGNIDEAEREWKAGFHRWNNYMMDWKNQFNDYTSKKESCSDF
- Protocol Details: Inhibition of equine serum BuChE using butyrylthiocholine iodide as substrate preincubated for 5 mins followed by substrate addition by DTNB reagent based Ellman's method
Recorded Endpoint: pIC50
Expect pIC50 as a plain number equal to -log10 of the molar concentration.

[[record]]
mol = "Clc1ccc(-c2nnc(CNC3CCN(Cc4ccccc4)CC3)o2)c(Cl)c1"
recorded_endpoint = "pIC50"
measured = 6.68


QUERY: Could you tell me which pIC50 is on file for `Fc1ccc(-c2nnc(N3CCN(c4ccccn4)CC3)o2)c(F)c1` ?
RESULT: 6.80

* * *

Recorded IC50 for the following compounds
- Tested System: Acetylcholinesterase (Homo sapiens)
- Sequence (P22303 whole entry): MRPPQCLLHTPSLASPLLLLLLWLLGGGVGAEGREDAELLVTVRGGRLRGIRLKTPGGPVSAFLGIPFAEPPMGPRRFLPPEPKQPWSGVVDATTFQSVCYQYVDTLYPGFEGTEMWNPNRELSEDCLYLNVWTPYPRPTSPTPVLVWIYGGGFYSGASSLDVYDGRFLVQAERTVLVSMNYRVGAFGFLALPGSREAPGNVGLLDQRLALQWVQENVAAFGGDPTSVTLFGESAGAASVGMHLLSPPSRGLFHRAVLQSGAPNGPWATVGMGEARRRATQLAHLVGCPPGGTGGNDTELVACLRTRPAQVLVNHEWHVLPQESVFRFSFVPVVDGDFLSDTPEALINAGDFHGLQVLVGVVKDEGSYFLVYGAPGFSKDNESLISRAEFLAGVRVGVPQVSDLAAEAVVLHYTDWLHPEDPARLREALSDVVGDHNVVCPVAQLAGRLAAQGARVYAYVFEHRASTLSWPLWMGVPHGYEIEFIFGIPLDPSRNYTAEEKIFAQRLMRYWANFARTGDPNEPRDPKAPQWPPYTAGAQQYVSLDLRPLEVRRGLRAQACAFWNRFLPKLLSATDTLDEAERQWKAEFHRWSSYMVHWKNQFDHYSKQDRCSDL
- Protocol Details: Inhibition of AChE (unknown origin) by Ellman's method
Respond with a number, then the unit of measure.

# count of solved cases: 4
[[record]]
mol = "COc1ccc([C@@H]2c3[nH]c4ccccc4c3C[C@H]3C(=O)N(CCC4CCN(Cc5ccccc5)CC4)CC(=O)N23)cc1"
tested_system = "Acetylcholinesterase (Homo sapiens)"
recorded_endpoint = "IC50"
measured = "10 nM"

[[record]]
mol = "COc1ccc2c3c1O[C@H]1C[C@@H](O)C=C[C@@]31CCN(CCCCCCNC13CC4CC(C)(CC(C)(C4)C1)C3)C2"
tested_system = "Acetylcholinesterase (Homo sapiens)"
recorded_endpoint = "IC50"
measured = "1.16 nM"

[[record]]
mol = "Cn1c(NCCCCCCCNc2c3c(nc4cc(Cl)ccc24)CCCC3)nc(-c2ccncc2F)cc1=O"
tested_system = "Acetylcholinesterase (Homo sapiens)"
recorded_endpoint = "IC50"
measured = "51.1 nM"

[[record]]
mol = "O=C1[C@@H]2Cc3c([nH]c4ccccc34)[C@@H](c3ccc4c(c3)OCO4)N2C(=O)CN1CCC1CCN(Cc2ccccc2)CC1"
tested_system = "Acetylcholinesterase (Homo sapiens)"
recorded_endpoint = "IC50"
measured = "30 nM"


Query compound follows.
QUERY: GET /values?readout=IC50&item= `O=C1[C@H]2Cc3c([nH]c4ccccc34)[C@@H](c3ccc4c(c3)OCO4)N2C(=O)CN1CCC1CCN(Cc2ccccc2)CC1`
RESULT: 30 nM

* * *

- Tested System: Acetylcholinesterase (Electrophorus electricus, UniProt O42275)
- Sequence (O42275 whole entry): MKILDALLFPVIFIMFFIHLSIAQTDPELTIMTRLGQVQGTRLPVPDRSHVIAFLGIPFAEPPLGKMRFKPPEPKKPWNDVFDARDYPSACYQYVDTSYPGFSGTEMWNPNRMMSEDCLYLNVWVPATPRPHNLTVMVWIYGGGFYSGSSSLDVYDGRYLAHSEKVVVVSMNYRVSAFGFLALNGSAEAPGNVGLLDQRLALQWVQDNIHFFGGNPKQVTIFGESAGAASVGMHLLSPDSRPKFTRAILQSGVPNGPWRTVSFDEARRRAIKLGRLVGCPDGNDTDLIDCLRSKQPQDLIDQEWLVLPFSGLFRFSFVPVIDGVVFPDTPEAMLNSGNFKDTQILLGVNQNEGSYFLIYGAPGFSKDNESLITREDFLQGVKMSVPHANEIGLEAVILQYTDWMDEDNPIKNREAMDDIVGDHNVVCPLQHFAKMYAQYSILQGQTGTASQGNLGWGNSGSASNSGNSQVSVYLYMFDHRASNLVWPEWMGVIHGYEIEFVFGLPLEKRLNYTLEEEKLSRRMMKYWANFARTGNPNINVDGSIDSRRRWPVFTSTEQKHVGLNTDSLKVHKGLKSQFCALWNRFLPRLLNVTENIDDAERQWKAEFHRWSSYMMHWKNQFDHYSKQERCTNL
- Protocol Details: Inhibition of electric eel AChE using acetylthiocholine iodide as substrate preincubated for 5 mins followed by substrate addition by DTNB reagent based Ellman's method
pIC50 overview
Interpret pIC50 as the negative base-10 log of the concentration measured in mol/L.

Worked examples, 5 compounds total:
[[record]]
mol = "CCOc1ccc(C(=O)/C=C/c2ccccc2)cc1"
recorded_endpoint = "pIC50"
measured = 5.49

[[record]]
mol = "CCN(CCCCOc1ccc(C(=O)/C=C/c2ccc(N(C)C)cc2)c(O)c1)Cc1ccccc1N(C)C"
recorded_endpoint = "pIC50"
measured = 6.89

[[record]]
mol = "O=C(/C=C/c1ccc(Br)cc1)c1ccc(Cl)s1"
recorded_endpoint = "pIC50"
measured = 4.79

[[record]]
mol = "O=C(/C=C/c1ccc(F)cc1)c1ccc(Br)s1"
recorded_endpoint = "pIC50"
measured = 4.74

[[record]]
mol = "CCO/C(C)=N/Oc1ccc(/C=C/C(=O)c2ccc(C)cc2)cc1"
recorded_endpoint = "pIC50"
measured = 6.07


QUERY: Consider the compound shown here: `O=C(/C=C/c1ccc(Cl)cc1)c1ccc(Cl)s1` What is its recorded pIC50?
RESULT: 4.83

QUERY: Continue with `CCO/C(C)=N/Oc1ccc(/C=C/C(=O)c2ccc(F)cc2)cc1`
RESULT: 6.17

QUERY: Same thing, different compound: `O=C(/C=C/c1ccc(OCc2ccccc2)cc1)c1ccc2c(c1)OCO2`
RESULT: 5.27

* * *

- Protocol Details: Permeability of compound at pH 7.4 by PAMPA assay
- Type: ADME
- Stated Conditions: read-out: permeability
Parameter Papp at 18 h: see the listing below.
Give the quantity in ×10⁻⁶ cm/s, number only.

[[record]]
mol = "CN1CC(=O)N2[C@H](c3ccc4c(c3)OCO4)c3[nH]c4ccccc4c3C[C@@H]2C1=O"
measurement_unit = "×10⁻⁶ cm/s"
measured = 2.16


From here, focus on the item given below.
QUERY: Give its Papp at 18 h value. Item: `COc1cc(/C=C/c2nnc(-c3ccc(C(F)(F)F)cc3)o2)ccc1O`
RESULT: 5.3

* * *

- Tested System: Amine oxidase [flavin-containing] A (Homo sapiens, UniProt P21397)
- Sequence (P21397 whole entry): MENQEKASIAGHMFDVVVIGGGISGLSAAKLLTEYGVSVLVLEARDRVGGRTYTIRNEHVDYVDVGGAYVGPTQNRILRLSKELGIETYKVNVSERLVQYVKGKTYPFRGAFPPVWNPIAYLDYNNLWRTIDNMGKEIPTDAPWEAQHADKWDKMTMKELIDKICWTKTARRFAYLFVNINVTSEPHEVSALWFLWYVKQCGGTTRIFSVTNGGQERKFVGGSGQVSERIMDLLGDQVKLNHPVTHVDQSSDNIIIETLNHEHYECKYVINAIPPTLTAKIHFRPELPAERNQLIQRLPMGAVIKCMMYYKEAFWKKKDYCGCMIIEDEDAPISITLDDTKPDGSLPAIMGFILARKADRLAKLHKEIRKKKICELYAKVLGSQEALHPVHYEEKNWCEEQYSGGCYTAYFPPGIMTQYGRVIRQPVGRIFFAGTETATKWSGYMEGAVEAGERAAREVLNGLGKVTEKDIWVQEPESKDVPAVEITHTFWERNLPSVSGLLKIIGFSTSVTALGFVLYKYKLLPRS
pIC50: −log10 of the molar value.
Recorded Endpoint: pIC50

Solved cases (3 shown):
[[record]]
mol = "COc1ccccc1/C=C1\\Oc2cc(OCCN3CCCC3)ccc2C1=O"
measured = "< 4.00"

[[record]]
mol = "CN(C)c1ccc(/C=C/C(=O)c2ccc(N3CCOCC3)cc2)cc1"
measured = "< 4.40"

[[record]]
mol = "COc1cc(/C=C2\\Oc3cc(OCCN4CCCCC4)ccc3C2=O)cc(OC)c1OC"
measured = "< 4.00"


We next turn to a different compound, shown below.
QUERY: Give its pIC50 value. Item: `O=C(/C=C/c1ccccc1)c1ccc(N2CCOCC2)cc1`
RESULT: < 4.40
